Assignment: determine reported microsomal CLint for the given compounds.
- method: Intrinsic clearance in mouse liver microsomes measured per mg of protein
- Format: ADME
- conditions: read-out: CLH
Provide only the numeric value, understood in µL/min/mg.

Measured microsomal CLint of `C=CCN1CC[C@]2(C)c3cc(O)ccc3C[C@@H]1[C@@H]2C` : 17

microsomal CLint recorded for this compound, O=C([C@H]1C[C@@H]1c1ccccc1)N1CCC(N2CCCCC2)CC1 (racemic) , is 50

----------
- method: Octanol-water distribution coefficient, log D of the compound at pH 7.4
- Assay type: physicochemical
- conditions: read-out: logD
Strictly below 1 in logD: Y. Otherwise: N.

API: query returns whether the molecule falls strictly under 1 in logD. Query: O=C(NCCN1CCN(Cc2ccc(Cl)c(Cl)c2)CC1)[C@H]1C[C@@H]1c1ccccc1 (racemic)
N

State whether 1 exceeds logD recorded for O=C([C@H]1C[C@@H]1c1ccccc1)N1CCN(c2ccccc2)CC1 (racemic) .
N

Please check: logD for O=C([C@H]1C[C@@H]1c1ccccc1)N1CCC(N2CCCC2)CC1 (racemic) , strictly under 1 or not?
Y

# check: logD < 1 for CCN(CC)CCNC(=O)[C@H]1C[C@@H]1c1ccccc1 (racemic)
Y

Strictly below 1: is that where logD of O=C(NCCCNC1CCCCC1)[C@H]1C[C@@H]1c1ccccc1 (stereo in doubt; (-)-1) sits?
N

Bench note: check whether CN(C)CC(C)(C)CNC(=O)[C@H]1C[C@@H]1c1ccccc1 (racemic) shows logD below 1
Y

Confirm or reject: logD of O=C(NC1CCC(N2CCCCC2)CC1)[C@H]1C[C@@H]1c1ccccc1 (mixture of isomers) lies strictly below 1
Y

logD strictly < 1 for this molecule? O=C(NCCN1CCN(C(=O)c2c(F)cccc2Cl)CC1)[C@H]1C[C@@H]1c1ccccc1 (racemic)
N

Is it true that logD reported for O=C([C@H]1C[C@@H]1c1ccccc1)N1CCC(N2CCCCC2)CC1 (racemic) is less than 1?
N

----------
- system-under-test: 5-hydroxytryptamine receptor 2A (Homo sapiens) (UniProt P28223)
- Sequence (P28223 whole entry): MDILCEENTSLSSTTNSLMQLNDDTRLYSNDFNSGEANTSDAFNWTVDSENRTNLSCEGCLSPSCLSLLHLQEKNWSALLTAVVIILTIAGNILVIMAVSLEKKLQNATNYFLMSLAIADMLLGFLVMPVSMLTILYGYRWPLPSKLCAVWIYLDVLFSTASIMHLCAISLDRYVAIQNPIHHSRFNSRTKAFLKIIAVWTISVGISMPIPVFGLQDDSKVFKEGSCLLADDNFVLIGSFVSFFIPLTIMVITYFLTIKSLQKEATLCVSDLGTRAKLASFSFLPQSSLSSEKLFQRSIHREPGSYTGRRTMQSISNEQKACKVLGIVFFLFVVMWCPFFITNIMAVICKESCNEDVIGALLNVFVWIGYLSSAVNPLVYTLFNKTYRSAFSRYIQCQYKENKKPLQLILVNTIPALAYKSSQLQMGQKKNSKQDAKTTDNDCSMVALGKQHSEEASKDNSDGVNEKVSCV
- method: Binding affinity to 5HT-2a receptor (unknown origin) at 10 uM by displacement assay relative to control
measure-name: inhibition (%)
The answer is to be given in %; state only the numeric part.

Sample `COc1ccc(CCN2CCN(CCCc3ccccc3)CC2)cc1OC` ; inhibition observed: 50

// CC(C)N(CCNC(=O)[C@H]1C[C@@H]1c1ccccc1)C(C)C (racemic) : inhibition value = 50

----------
- system-under-test: Sigma non-opioid intracellular receptor 1 (Homo sapiens, UniProt Q99720)
- Sequence (Q99720 whole entry): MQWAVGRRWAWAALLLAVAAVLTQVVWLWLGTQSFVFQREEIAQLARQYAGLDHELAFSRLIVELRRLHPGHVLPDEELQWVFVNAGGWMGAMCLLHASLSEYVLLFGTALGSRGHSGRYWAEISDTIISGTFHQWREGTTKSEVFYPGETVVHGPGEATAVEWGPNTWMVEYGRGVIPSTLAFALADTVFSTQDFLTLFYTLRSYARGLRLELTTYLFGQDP
- method: Displacement of [3H]-pentazocine from human recombinant sigma-1 receptor expressed in CHO cells after 180 mins by beta counting analysis
measure-name: Ki (nM)
Your answer should be a plain number; it is taken to be in nM.

So for O=C([C@H]1C[C@@H]1c1ccc(F)cc1)N1CCC(N2CCCCC2)CC1 (racemic) , the logged Ki turned out to be 100

Value of measured Ki for the entry O=C([C@H]1C[C@@H]1c1ccc(F)cc1)N1CCC(CNCC2CCCCC2)CC1 (racemic) : 79.4

Kindly note the recorded Ki for O=C(NC1CCC(N2CCCCC2)CC1)[C@H]1C[C@@H]1c1ccccc1 (mixture of isomers) , which is 1260

Record summary for O=C(NCCCNC1CCCCC1)[C@H]1C[C@@H]1c1ccccc1 (stereo in doubt; (-)-1) : reported Ki = 158

Value of Ki reported for the compound O=C(NCCN1CCN(Cc2ccc(Cl)c(Cl)c2)CC1)[C@H]1C[C@@H]1c1ccccc1 (racemic) is 10

Reported Ki ( O=C([C@H]1C[C@@H]1c1ccccc1)N1CCC(N2CCCCC2)CC1 (racemic) ) = 79.4

Measured Ki of O=C([C@H]1C[C@@H]1c1ccccc1)N1CCN(c2ccccc2)CC1 (racemic) : 1260

Given item CN(C)CC(C)(C)CNC(=O)[C@H]1C[C@@H]1c1ccccc1 (racemic) , the value recorded as its Ki is 398

// recorded Ki for O=C(NCCN1CCN(Cc2ccccc2)CC1)[C@H]1C[C@@H]1c1ccccc1 (racemic) : 15.8

Lab note: O=C([C@H]1C[C@@H]1c1ccccc1)N1CCC(N2CCCC2)CC1 (racemic) gave Ki of 200

For reference, reported Ki for O=C(NCCN1CCN(C(=O)c2c(F)cccc2Cl)CC1)[C@H]1C[C@@H]1c1ccccc1 (racemic) stands at 631

The compound identified as CCN(CC)CCNC(=O)[C@H]1C[C@@H]1c1ccccc1 (racemic) registered its Ki at 126

The measured Ki associated with `C=CCN1CC[C@]2(C)c3cc(O)ccc3C[C@@H]1[C@@H]2C` reads 158

GET /value?item= O=C(NCCCN1CCN(Cc2c(F)cccc2Cl)CC1)[C@H]1C[C@@H]1c1ccccc1 (racemic) &field=Ki returns 25.1

Entry O=C(NCCCNC1CCCCC1)[C@H]1C[C@@H]1c1ccccc1 (racemic) — recorded Ki = 200

Looking up CC(C)N(CCNC(=O)[C@H]1C[C@@H]1c1ccccc1)C(C)C (racemic) , I see its Ki listed as 63.1

Entry O=C(NCCCNC1CCCCC1)[C@H]1C[C@@H]1c1ccccc1 (stereo in doubt; (+)-1) ; Ki = 158

Lab note: O=C(NCCN1CCN(Cc2c(F)cccc2Cl)CC1)[C@H]1C[C@@H]1c1ccccc1 (racemic) gave Ki of 25.1

get_value(item= O=C(NCCN1CCCC1)[C@H]1C[C@@H]1c1ccccc1 (racemic) , readout=Ki) returns 63.1
